I'd be grateful if you could share measured phenotypic severity score for these entries.
system: Schistosoma mansoni schistosomula (NMRI); experiment: phenotypic severity score (0-4); higher = more antischistosomal effect, active = 2 or more; conditions: 48 h; 10 µM
# answer = number (no unit)

Qu. Hello, please tell me recorded phenotypic severity score for this one: CCNC(=O)C(C)Nc1nc(-c2cccnc2)nc2sc(C)c(C)c12 (configuration not stated)
Ans. 0

Qu. Hello, please tell me recorded phenotypic severity score for this one: NCCCC(N)(C(=O)O)C(F)F (configuration not stated)
Ans. 0

Qu. Hello, please tell me recorded phenotypic severity score for this one: Cc1ccccc1C(=O)N1N=C(Nc2ccccc2)SC1(C)C
Ans. 2

Qu. Hello, please tell me recorded phenotypic severity score for this one: c1ccc(Oc2ccc(-c3cc(C4CCOCC4)[nH]n3)cc2)cc1
Ans. 0

Qu. Hello, please tell me recorded phenotypic severity score for this one: Cc1nn2c(=O)c3c([nH]c2c1-c1ccc(Cl)cc1)CCCC3
Ans. 0

Qu. Hello, please tell me recorded phenotypic severity score for this one: Nc1ncnc2c1ncn2[C@@H]1O[C@H](COS(=O)(=O)NC(=O)c2ccccc2O)[C@@H](O)[C@H]1O
Ans. 0

Qu. Hello, please tell me recorded phenotypic severity score for this one: CN1CCCN(C(c2ccccc2)c2ccc(Cl)cc2)CC1 (configuration not stated)
Ans. 0

Qu. Hello, please tell me recorded phenotypic severity score for this one: O=C(CN1CCOCC1)Nc1ccc2ncnc(Nc3ccc(OCc4cccc(F)c4)c(Cl)c3)c2c1
Ans. 0

Qu. Hello, please tell me recorded phenotypic severity score for this one: Nc1ccc(C(=O)Nc2ccc(-c3nc4ccccc4o3)cc2)cc1
Ans. 0

Qu. Hello, please tell me recorded phenotypic severity score for this one: NCC(c1cccs1)S(=O)(=O)c1ccccc1 (configuration not stated)
Ans. 1

Qu. Hello, please tell me recorded phenotypic severity score for this one: CC(C)(C)c1cc(C(=O)N2CCN(c3nccnc3C#N)CC2)n(Cc2ccccc2)n1
Ans. 0

Qu. Hello, please tell me recorded phenotypic severity score for this one: CCOc1ccc2cc(-c3nn(CC4CCN(C)CC4)c4ncnc(N)c34)ccc2c1
Ans. 0

Qu. Hello, please tell me recorded phenotypic severity score for this one: CN1CCN(S(=O)(=O)c2ccc(-c3ccc4c(Nc5ccc6nn[nH]c6c5)ccnc4c3)cc2)CC1
Ans. 0

Qu. Hello, please tell me recorded phenotypic severity score for this one: COc1ccc(-c2cnc3ccc(NCc4ccc(S(N)(=O)=O)cc4)nn23)cn1
Ans. 0

Qu. Hello, please tell me recorded phenotypic severity score for this one: Cc1nc(-c2cccc(NCc3ccccc3)c2)[nH]c1C
Ans. 0

Qu. Hello, please tell me recorded phenotypic severity score for this one: CC(C)(C)OC(=O)N1CCN(c2cc(-c3ccc(Oc4ccccc4)cc3)n[nH]2)CC1
Ans. 0

Qu. Hello, please tell me recorded phenotypic severity score for this one: Nc1nccc2ccc(-c3ccc4nccn4c3)cc12
Ans. 4

Qu. Hello, please tell me recorded phenotypic severity score for this one: Cc1nn2c(O)c3c(nc2c1-c1ccc(F)cc1)CCCC3
Ans. 0

Qu. Hello, please tell me recorded phenotypic severity score for this one: CCOc1ccc(-c2nc(NC(=O)CS(=O)(=O)c3ccccc3)sc2C)cc1
Ans. 0

Qu. Hello, please tell me recorded phenotypic severity score for this one: COc1ccc(Cn2cnc3c(-c4ccco4)nc(Cl)nc32)cc1
Ans. 0

Qu. Hello, please tell me recorded phenotypic severity score for this one: CNc1nnc(Sc2cnn(-c3ccccc3)c(=O)c2Cl)s1
Ans. 4

Qu. Hello, please tell me recorded phenotypic severity score for this one: Cc1cc(Cl)ccc1NC(=O)CCc1ccc(S(=O)(=O)NCC(C)C)cc1
Ans. 0

---

test system: Schistosoma mansoni schistosomula (LE); test: XTT viability relative to DMSO control; higher = more viable (less active); conditions: 72 h; 10 µM
I'd be grateful if you could share measured XTT viability for these entries.
Give the quantity in %, number only.

Qu. Hello, please tell me recorded XTT viability for this one: CCCCCCCCCCCCCCCCOP(=O)([O-])OCC[N+](C)(C)C
Ans. 127

Qu. Hello, please tell me recorded XTT viability for this one: CCCCOC(=O)Nc1cc2nc(C3CCCCC3)[nH]c2cc1N1CCCC1
Ans. 132

Qu. Hello, please tell me recorded XTT viability for this one: Clc1cccc(CO[C@H]2CCc3ccccc3[C@@H]2n2ccnn2)c1
Ans. 80.7

Qu. Hello, please tell me recorded XTT viability for this one: FC(F)(F)c1cnc(Sc2nnc(-c3ccncc3)o2)c(Cl)c1
Ans. 74

Qu. Hello, please tell me recorded XTT viability for this one: CC1CC1C(=O)NC1CCN(CC2(c3ccccc3)CCCCC2)CC1 (stereo unspecified)
Ans. 82.4

Qu. Hello, please tell me recorded XTT viability for this one: O=C(Nc1ccc(F)c(-c2nc3cc(-c4ccccc4)cnc3[nH]2)c1)N1CCCC1
Ans. 111

Qu. Hello, please tell me recorded XTT viability for this one: O=C(Nc1ccc(N2CCNCC2)cc1)c1ccn2ncc(-c3cccc(Cl)c3)c2n1
Ans. 7.7

Qu. Hello, please tell me recorded XTT viability for this one: COc1cccc2c(C)nc(N=C(N)N)nc12
Ans. 93.3

Qu. Hello, please tell me recorded XTT viability for this one: COc1cc(C2=NCCN2)ccc1-c1cn(-c2cccc(C3=NCCN3)c2)nn1
Ans. 72.8

Qu. Hello, please tell me recorded XTT viability for this one: Cc1nc(-c2ccccn2)nc(NCCc2ccc(S(C)(=O)=O)cc2)c1Cl
Ans. 66.9

Qu. Hello, please tell me recorded XTT viability for this one: CCCn1c(NC(=O)c2ccc3ccccc3n2)nc2ccccc21
Ans. 5.68

---

I'd be grateful if you could share measured XTT viability for these entries.
tested on: Schistosoma mansoni schistosomula (LE); assay: XTT viability relative to DMSO control; higher = more viable (less active); conditions: 72 h; 10 µM
Give the quantity in %, number only.

Qu. For Schistosoma mansoni schistosomula (LE), give the measured XTT viability of the entry c1ccc(Oc2ccc(-c3cncc(-c4ccc5[nH]ccc5c4)n3)cc2)cc1
Ans. 3.06

Qu. For Schistosoma mansoni schistosomula (LE), give the measured XTT viability of the entry COc1ccc(-c2cnc3ccc(NCc4ccc(S(N)(=O)=O)cc4)nn23)cn1
Ans. 125

Qu. For Schistosoma mansoni schistosomula (LE), give the measured XTT viability of the entry O=C1N(Cc2cc3ccccc3s2)CC2CN(Cc3ccccc3)CCN12 (stereo not given)
Ans. 87.2

Qu. For Schistosoma mansoni schistosomula (LE), give the measured XTT viability of the entry CC(C)N=c1cc2n(-c3ccc(Cl)cc3)c3ccccc3nc-2cc1Nc1ccc(Cl)cc1
Ans. 16.6

Qu. For Schistosoma mansoni schistosomula (LE), give the measured XTT viability of the entry CN1CCCC1CCO[C@](C)(c1ccccc1)c1ccc(Cl)cc1 (stereo not given in full)
Ans. 46.6

---

test system: Schistosoma mansoni schistosomula (NMRI); experiment: phenotypic severity score (0-4); higher = more antischistosomal effect, active = 2 or more; conditions: 48 h; 10 µM
In this exercise, the only acceptable responses are active, inactive

Qu. Status in this test for COc1cccc(-n2nnnc2S(=O)(=O)Cc2ccccc2)c1 ?
Ans. active

Qu. Status in this test for O=C(CCC1CCCCC1)Nc1cccc(-c2nnc(-c3ccco3)o2)c1 ?
Ans. active

Qu. Status in this test for Nc1ncnc2c1c(Cc1cccc3ccccc13)nn2CC1CCNCC1 ?
Ans. inactive

Qu. Status in this test for Cc1ccc(Oc2ccc(NC(=O)CNc3ccccc3N3CCCC3=O)cc2)cc1 ?
Ans. active

Qu. Status in this test for CC(c1cc(Cl)cc(Cl)c1)N(C)c1ncc2c(N)nc(N)nc2n1 (stereo not given) ?
Ans. inactive

Qu. Status in this test for c1ccc(-c2nc(NC3CCCCC3)cc(C3CC3)n2)nc1 ?
Ans. inactive

Qu. Status in this test for CCn1ncc2c(NC3CCOCC3)c(CNC(=O)c3ccnn3C)c(C)nc21 ?
Ans. inactive

Qu. Status in this test for CC1(COc2ccc(N3CCC(Oc4ccc(OC(F)(F)F)cc4)CC3)cc2)Cn2cc([N+](=O)[O-])nc2O1 (stereo not given) ?
Ans. inactive

Qu. Status in this test for Cc1nn(C(=O)Nc2cccc(C(F)(F)F)c2)c(C)c1Sc1ncccn1 ?
Ans. inactive

Qu. Status in this test for C[C@H](C(N)=O)N1CCCC[C@@H]1c1ccc(OCc2cccc(F)c2)cc1 ?
Ans. inactive

---

I'd be grateful if you could share measured phenotypic severity score for these entries.
system: Schistosoma mansoni schistosomula (NMRI); test: phenotypic severity score (0-4); higher = more antischistosomal effect, active = 2 or more; details: 72 h; 10 µM
# answer = number (no unit)

Qu. For Schistosoma mansoni schistosomula (NMRI), give the measured phenotypic severity score of the entry O=C1Nc2ccc(Br)cc2C12NCCc1c2[nH]c2ccccc12 (stereo unspecified)
Ans. 0

Qu. For Schistosoma mansoni schistosomula (NMRI), give the measured phenotypic severity score of the entry CC(=O)NC[C@H]1CN(c2ccc(N3CCSCC3)c(F)c2)C(=O)O1
Ans. 0

Qu. For Schistosoma mansoni schistosomula (NMRI), give the measured phenotypic severity score of the entry O=C(Nc1c(O)cccc1-c1nc2c(C(=O)O)cccc2o1)c1cc(-c2ccccc2)on1
Ans. 0

Qu. For Schistosoma mansoni schistosomula (NMRI), give the measured phenotypic severity score of the entry COc1cncc(-c2cncc(N3CCN(c4ccncc4)CC3)n2)c1
Ans. 0

Qu. For Schistosoma mansoni schistosomula (NMRI), give the measured phenotypic severity score of the entry CN1CCN(c2nccc3nc(-c4ccc(F)c(F)c4)[nH]c23)CC1
Ans. 0

Qu. For Schistosoma mansoni schistosomula (NMRI), give the measured phenotypic severity score of the entry CCCc1ccc(S(=O)(=O)Nc2ccc(CN3CCN(CC4CC4)CC3)cc2)cc1
Ans. 0

Qu. For Schistosoma mansoni schistosomula (NMRI), give the measured phenotypic severity score of the entry Cc1nc2ccccn2c1C(=O)NCc1ccc(Cl)cc1
Ans. 0

Qu. For Schistosoma mansoni schistosomula (NMRI), give the measured phenotypic severity score of the entry c1ccc(Oc2ccc(-c3cc(N4CCNCC4)[nH]n3)cc2)cc1
Ans. 2

Qu. For Schistosoma mansoni schistosomula (NMRI), give the measured phenotypic severity score of the entry CCCCN(CCCC)c1c(C#N)cc(S(=O)(=O)Nc2ccccc2)cc1C#N
Ans. 0

Qu. For Schistosoma mansoni schistosomula (NMRI), give the measured phenotypic severity score of the entry Cc1cnc(N2CCN[C@@H](Cc3ccccc3)C2)nc1Oc1ccc(-n2ccnc2)cc1
Ans. 4

Qu. For Schistosoma mansoni schistosomula (NMRI), give the measured phenotypic severity score of the entry CC(C(=O)N1CCCC1)N1CCN(S(=O)(=O)c2ccc(C(C)(C)C)cc2)CC1 (stereo unspecified)
Ans. 0
